test: Assay 6 in vitro metabolic stability in cryopreserved human hepatocytes (CL, Fmax); assay type: in vitro ADME; details: hepatic in vivo blood clearance calculated (well-stirred) from half-life in cryopreserved human hepatocytes, 1 μM test compound
endpoint: log10(Clblood) (log10 of the value in mL/min/kg)
Scale: log10; quantity: Clblood; unit before log: mL/min/kg

For the molecule shown here, CCC(CNc1ccc(C2=NNC(=O)OC2)cc1C(F)(F)F)OC (stereo not drawn) , give the reported log10(Clblood).
1.15

I'd like to know its log10(Clblood). The molecule in question is O=C1NN=C(c2ccc(-c3ccc(Cl)cc3)c(C(F)F)c2)CO1
1.20

Please look up its log10(Clblood): O=C1NN=C(c2ccc(-c3ccc(F)cc3)c(OC(F)(F)F)c2)CO1
0.65

// query log10(Clblood) value for entry Cc1cc(F)ccc1-c1ccc(C2=NNC(=O)OC2)cc1C
0.50

Could you share which log10(Clblood) value was measured for O=C1NN=C(c2ccc(-c3ccccc3C(F)F)c(F)c2)CO1 ?
0.96

Which log10(Clblood) is reported for this molecule? CC(C)(C)Nc1ccc(C2=NNC(=O)OC2)cc1C(F)(F)F
0.77

What does the data say about its log10(Clblood)? Entry: CCOCCNc1ccc(C2=NNC(=O)OC2)cc1C(F)(F)F
1.16

Recorded log10(Clblood) for Cc1cc(F)ccc1-c1ccc(C2=NNC(=O)OC2)cc1F , please?
1.01

Entry Cc1cc(C2=NNC(=O)OC2)ccc1-c1ccc(F)cc1 : reported log10(Clblood) = ?
0.74

What log10(Clblood) value was documented for this molecule, C[C@@H]1OC(=O)NN=C1c1ccc(-n2ccc(C(F)(F)F)n2)c(C(F)(F)F)c1 ?
0.93

Fill in: log10(Clblood) of C[C@@H]1OC(=O)NN=C1c1ccc(-c2cnn(C(F)F)c2)c(C(F)(F)F)c1 is ___
1.18

Look up log10(Clblood) for this molecule: O=C1NN=C(c2ccc(-c3ccc(F)cc3)c(C(F)F)c2)CO1
0.87

Which log10(Clblood) value is on record for O=C1NN=C(c2ccc(-c3ccc(Cl)cc3)c(C(F)(F)F)c2)CO1 ?
1.03

If you can, please state the reported log10(Clblood) value of CC1(O)CN(c2ccc(C3=NNC(=O)OC3)cc2C(F)(F)F)C1 .
1.01

Look at this molecule and give its reported log10(Clblood). NC(=O)CNc1ccc(C2=NNC(=O)OC2)cc1C(F)(F)F
0.08

What value of log10(Clblood) has been reported for the following molecule? CC(C)Cc1ccc(C2=NNC(=O)OC2)cc1C(F)(F)F
0.70

# lookup: log10(Clblood) of C[C@@H]1OC(=O)NN=C1c1ccc(-c2ccnc(N)c2)c(C(F)(F)F)c1
1.17

// lookup log10(Clblood) for O=C1NN=C(c2ccc(-c3cnn(C(F)F)c3)c(C(F)(F)F)c2)CO1
0.95

Which measured log10(Clblood) value corresponds to O=C1NN=C(c2ccc(N3CCC(F)(F)CC3)c(F)c2)CO1 ?
0.60

# credit: patent US11427553B2
